molecular target: TYK2 (Homo sapiens, UniProt P29597); construct: endogenous in cells; host or cells: Molt4 (ATCC CRL-1582) and Ramos (ATCC CRL-1596), mixed lysate 1:2; assay: Kinobeads assay, TYK2 (competition binding in mixed Molt4/Ramos cell lysate, dot blot detection); settings: Kinobeads assay, Molt4/Ramos lysate; read-out: TYK2 Band (Kinobeads assay potency, IC50)
Sequence (P29597 whole entry): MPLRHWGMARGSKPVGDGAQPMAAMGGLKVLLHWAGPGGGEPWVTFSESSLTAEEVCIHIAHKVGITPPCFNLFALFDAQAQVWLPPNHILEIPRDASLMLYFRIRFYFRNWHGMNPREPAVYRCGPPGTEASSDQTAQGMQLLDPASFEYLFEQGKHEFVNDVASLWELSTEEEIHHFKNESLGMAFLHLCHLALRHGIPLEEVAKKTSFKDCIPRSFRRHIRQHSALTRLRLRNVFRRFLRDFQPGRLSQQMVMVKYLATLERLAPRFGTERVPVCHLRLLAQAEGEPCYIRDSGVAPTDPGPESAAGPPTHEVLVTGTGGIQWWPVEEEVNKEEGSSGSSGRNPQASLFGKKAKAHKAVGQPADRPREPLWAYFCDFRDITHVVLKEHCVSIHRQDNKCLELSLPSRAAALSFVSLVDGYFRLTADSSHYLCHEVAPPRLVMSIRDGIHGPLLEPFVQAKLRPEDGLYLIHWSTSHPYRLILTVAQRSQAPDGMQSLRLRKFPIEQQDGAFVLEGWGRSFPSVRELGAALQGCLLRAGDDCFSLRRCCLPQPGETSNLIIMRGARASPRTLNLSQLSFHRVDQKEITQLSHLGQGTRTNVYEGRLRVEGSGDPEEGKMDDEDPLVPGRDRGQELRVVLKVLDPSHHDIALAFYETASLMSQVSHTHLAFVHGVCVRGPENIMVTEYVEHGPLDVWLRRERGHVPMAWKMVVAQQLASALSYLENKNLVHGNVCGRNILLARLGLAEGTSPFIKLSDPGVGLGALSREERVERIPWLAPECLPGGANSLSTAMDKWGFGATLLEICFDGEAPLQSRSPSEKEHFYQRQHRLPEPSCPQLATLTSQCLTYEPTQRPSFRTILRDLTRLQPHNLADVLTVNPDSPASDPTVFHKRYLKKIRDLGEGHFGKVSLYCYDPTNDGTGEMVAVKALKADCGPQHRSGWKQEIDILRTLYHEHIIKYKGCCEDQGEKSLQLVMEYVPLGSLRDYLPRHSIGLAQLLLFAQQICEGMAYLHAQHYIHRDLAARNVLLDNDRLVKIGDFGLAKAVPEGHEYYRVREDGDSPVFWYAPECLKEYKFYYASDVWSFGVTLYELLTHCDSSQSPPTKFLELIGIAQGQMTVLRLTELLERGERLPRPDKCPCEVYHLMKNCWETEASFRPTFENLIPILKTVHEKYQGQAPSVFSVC
Can you tell me IC50 for the items I'm about to list?

Q: Supply recorded IC50 for `C[C@@H](CO)NC(=O)Cn1cc(Nc2nccc(NCc3c(F)cc(F)cc3Cl)n2)cn1` here.
Ans: ≤ 10 nM

Q: Supply recorded IC50 for `Fc1cccc(F)c1CNc1nc(Nc2cnn(Cc3ncco3)c2)ncc1Cl` here.
Ans: 100 to 1000 nM

Q: Supply recorded IC50 for `Cn1cc(Nc2ncc(Cl)c(NCc3cc(F)cc(C(F)(F)F)c3)n2)cn1` here.
Ans: 100 to 1000 nM

Q: Supply recorded IC50 for `Cc1cnc(Nc2cnn(CC(F)F)c2)nc1NCc1ccc(S(N)(=O)=O)cc1` here.
Ans: 100 to 1000 nM

The measured values listed here are drawn from patent US9296725B2.
